The following molecules are shown together with reported GI50 values.
# Test system: 786-0 renal
# test-description: NCI tumour cell line growth inhibition, 48 h

Enquiry: I would be grateful if you could share the reported GI50 for CC(C)C[C@H](NC(=O)[C@@H](Cc1ccccc1)n1ccc(Nc2ccccc2)cc1=O)B(O)O .
Return: 0.582 µM

Enquiry: I would be grateful if you could share the reported GI50 for CC[C@]12C=CCN3CC[C@@]4(c5ccc(OC)cc5N(C)[C@H]4[C@@](O)(C(=O)OC)[C@@H]1OC(=O)CCC(=O)O[C@H]1CC[C@H]4[C@@H]5CCC6=CC(=O)CC[C@@H]6[C@H]5CC[C@]14C)[C@@H]32 .
Return: 1.99 µM

Enquiry: I would be grateful if you could share the reported GI50 for CCOC(=O)c1c(-c2ccccc2)n2c(=O)cc(C)c3c(O)c(O)cc1c32 .
Return: 11.7 µM

Enquiry: I would be grateful if you could share the reported GI50 for N#CC1=C(N)N=C(N2CCOCC2)C(C#N)C12Nc1ccccc1S2 (stereo not drawn) .
Return: 29.6 µM

Enquiry: I would be grateful if you could share the reported GI50 for Cc1ccc(C2=NN(c3ccc(S(=O)(=O)NC(=O)NCc4ccccc4)cc3)C(c3ccc(N(C)C)cc3)C2)c(C)c1 (stereo not drawn) .
Return: 4.37 µM

Enquiry: I would be grateful if you could share the reported GI50 for NS(=O)(=O)c1ccc(N=Nc2c(O)[nH]c3ccc(C(=O)NCCCn4ccnc4)cc23)cc1 .
Return: > 25 µM

Enquiry: I would be grateful if you could share the reported GI50 for Cn1cc(-c2csc(-c3ccccc3)n2)c2cccnc21 .
Return: 14.4 µM

Enquiry: I would be grateful if you could share the reported GI50 for NC(=O)c1c[nH]c2ncnc(N)c12 .
Return: > 100 µM

Enquiry: I would be grateful if you could share the reported GI50 for COc1ccccc1CNCCCN1C(=O)c2ccc3c4c(ccc(c24)C1=O)C(=O)N(CCCNCCCCNCCCN)C3=O .
Return: 1.03 µM

Enquiry: I would be grateful if you could share the reported GI50 for CCOc1cc(Cl)c(C(C)NC(=O)c2cccc(OC)c2)cc1OCC (stereo not drawn) .
Return: 20.5 µM

Enquiry: I would be grateful if you could share the reported GI50 for O=S(=O)(NCCNc1nccc(-c2c(-c3ccc(F)cc3)nc3sccn23)n1)c1ccc(O)cc1 .
Return: 4.26 µM

Enquiry: I would be grateful if you could share the reported GI50 for O=C(O)c1ccc(CSc2nc3ccccc3[nH]2)cc1 .
Return: > 100 µM

Enquiry: I would be grateful if you could share the reported GI50 for Cc1cc(S(=O)(=O)Nc2nc3ccccc3c(=O)n2Cc2ccco2)c(S)cc1Cl .
Return: 36.1 µM

Enquiry: I would be grateful if you could share the reported GI50 for COC(=O)C1C(C(=O)O)C2(c3ccccc3)C(=O)C1(c1ccccc1)C(c1ccc(OC)cc1)=C2c1ccc(OC)cc1 (stereo not drawn) .
Return: 18.6 µM

Enquiry: I would be grateful if you could share the reported GI50 for Cc1ccc(NC(=S)NNC(=S)Nc2ccc(C)cc2)cc1 .
Return: 51.3 µM

Enquiry: I would be grateful if you could share the reported GI50 for CC(=O)[O-].CC(=O)[O-].O=C([CH-]C(=O)c1ccccc1)c1ccccc1.[Nd+3].[OH3+] .
Return: 19.4 µM

Enquiry: I would be grateful if you could share the reported GI50 for CCCCCOC(=O)Nc1nc(=O)n(C2OC(C)C(O)C2O)cc1F (stereo not drawn) .
Return: > 10000 µM

Enquiry: I would be grateful if you could share the reported GI50 for COc1ccc2[nH]c(C(=O)OCc3ccc4c(Br)cc(Br)c(O)c4n3)cc2c1 .
Return: 1.23 µM
